Measured refractive index accompanies every entry in the list below.
Experiment: refractive index (Na D-line) (dimensionless)
Details: 353.15 K; 101.33 kPa; Liquid; Standard Abbe refractometry
READOUT LABEL: refractive index

>>> quantitative_result("COCCOCCOC [2,5,8-trioxanonane]")
1.38178
>>> quantitative_result("CCOCCOCCO [3,6-dioxa-1-octanol]")
1.40276
>>> quantitative_result("OCCOCCOCCO [triethylene glycol]")
1.43622
>>> quantitative_result("COCCOCCOCCOC [2,5,8,11-tetraoxadodecane]")
1.39723

* * *

Measured speed of sound accompanies every entry in the list below.
Settings: 323.15 K; 101.33 kPa; Liquid; Sing-around technique in a fixed-path interferometer
READOUT LABEL: speed of sound (m/s)

>>> quantitative_result("OCCOCCOCCO [triethylene glycol]")
1536.3
>>> quantitative_result("OCCOCCO [diethylene glycol]")
1518.8
>>> quantitative_result("COCCOCCO [2-(2-methoxyethoxy)ethanol]")
1329.7
>>> quantitative_result("COCCOCCOC [2,5,8-trioxanonane]")
1181.7
>>> quantitative_result("CCOCCO [2-ethoxyethan-1-ol]")
1213.8
>>> quantitative_result("COCCOCCOCCOCCOC [2,5,8,11,14-pentaoxapentadecane]")
1289.1
>>> quantitative_result("CCOCCOCCOCC [diethylene glycol diethyl ether]")
1145.1
>>> quantitative_result("COCCOCCOCCOC [2,5,8,11-tetraoxadodecane]")
1246.9
>>> quantitative_result("OCCO [1,2-ethanediol]")
1595.5
>>> quantitative_result("CCOCCOCCO [3,6-dioxa-1-octanol]")
1286.9

* * *

Details: 303.15 K; 101.33 kPa; Liquid; Concentric cylinders viscometry
Please respond with Satisfied when measured viscosity is strictly beneath 3 mPa·s, and with Not satisfied in all other cases.

>>> discrete_label("CCOCCOCCO [3,6-dioxa-1-octanol]")
"Not satisfied"
>>> discrete_label("CCOCCO [2-ethoxyethan-1-ol]")
"Satisfied"
>>> discrete_label("COCCOCCOC [2,5,8-trioxanonane]")
"Satisfied"
>>> discrete_label("CCOCCOCCOCC [diethylene glycol diethyl ether]")
"Satisfied"
>>> discrete_label("OCCOCCOCCO [triethylene glycol]")
"Not satisfied"
>>> discrete_label("OCCOCCO [diethylene glycol]")
"Not satisfied"
>>> discrete_label("OCCO [1,2-ethanediol]")
"Not satisfied"
>>> discrete_label("COCCOCCOCCOC [2,5,8,11-tetraoxadodecane]")
"Satisfied"

* * *

Measured viscosity accompanies every entry in the list below.
Conditions: 293.15 K; 101.33 kPa; Liquid; Concentric cylinders viscometry
READOUT LABEL: viscosity (mPa·s)

>>> quantitative_result("CCOCCOCCOCC")
1.353
>>> quantitative_result("COCCOCCOCCOCCOC")
3.846
>>> quantitative_result("OCCOCCO")
36.02
>>> quantitative_result("OCCO")
21.2
>>> quantitative_result("CCOCCO")
2.066
>>> quantitative_result("CCOCCOCCO")
4.466
>>> quantitative_result("COCCOCCOC")
1.081
>>> quantitative_result("COCCOCCO")
3.963
>>> quantitative_result("COCCOCCOCCOC")
2.162
>>> quantitative_result("OCCOCCOCCO")
48.05

* * *

Assay: refractive index (Na D-line) (dimensionless)
Settings: 283.15 K; 101.33 kPa; Liquid; Standard Abbe refractometry
Measured refractive index accompanies every entry in the list below.
READOUT LABEL: refractive index

>>> quantitative_result("COCCOCCOC")
1.41249
>>> quantitative_result("CCOCCOCCOCC")
1.41658
>>> quantitative_result("OCCO")
1.43461
>>> quantitative_result("COCCOCCOCCOCCOC")
1.43599
>>> quantitative_result("CCOCCO")
1.4149
>>> quantitative_result("CCOCCOCCO")
1.4311
>>> quantitative_result("COCCOCCOCCOC")
1.42712
>>> quantitative_result("OCCOCCO")
1.45019
>>> quantitative_result("COCCOCCO")
1.42914
>>> quantitative_result("OCCOCCOCCO")
1.45944

* * *

Test: refractive index (Na D-line) (dimensionless)
Details: 333.15 K; 101.33 kPa; Liquid; Standard Abbe refractometry
READOUT LABEL: refractive index

>>> quantitative_result("CCOCCOCCO [3,6-dioxa-1-octanol]")
1.41082
>>> quantitative_result("OCCOCCO [diethylene glycol]")
1.43424
>>> quantitative_result("CCOCCO [2-ethoxyethan-1-ol]")
1.39271
>>> quantitative_result("CCOCCOCCOCC [diethylene glycol diethyl ether]")
1.39382
>>> quantitative_result("OCCOCCOCCO [triethylene glycol]")
1.44293
>>> quantitative_result("COCCOCCOCCOCCOC [2,5,8,11,14-pentaoxapentadecane]")
1.41578

* * *

Conditions: 373.15 K; 101.33 kPa; Liquid; Concentric cylinders viscometry
Each entry gets label 0 if its viscosity stays under 0.9 mPa·s, and label 1 if its viscosity is 0.9 mPa·s or above.

>>> discrete_label("OCCOCCOCCO [triethylene glycol]")
"label 1"
>>> discrete_label("CCOCCOCCOCC [diethylene glycol diethyl ether]")
"label 0"
>>> discrete_label("CCOCCO [2-ethoxyethan-1-ol]")
"label 0"
>>> discrete_label("OCCOCCO [diethylene glycol]")
"label 1"
>>> discrete_label("COCCOCCOCCOCCOC [2,5,8,11,14-pentaoxapentadecane]")
"label 1"

* * *

Settings: 368.15 K; 101.33 kPa; Liquid; Vibrating tube method
Numbers after ± are expanded uncertainties.
Measured mass density accompanies every entry in the list below.
READOUT LABEL: mass density

>>> result("CCOCCOCCO [3,6-dioxa-1-octanol]")
"921.4 ± 4.1 kg/m3"
>>> result("COCCOCCOCCOC [2,5,8,11-tetraoxadodecane]")
"914.5 ± 2 kg/m3"
>>> result("CCOCCOCCOCC [diethylene glycol diethyl ether]")
"836.5 ± 4 kg/m3"

* * *

Details: 338.15 K; 101.33 kPa; Liquid; Vibrating tube method
Measured mass density accompanies every entry in the list below.
READOUT LABEL: mass density (kg/m3)

>>> quantitative_result("OCCOCCOCCO [triethylene glycol]")
1089.5
>>> quantitative_result("OCCO [1,2-ethanediol]")
1082.6
>>> quantitative_result("OCCOCCO [diethylene glycol]")
1085.2
>>> quantitative_result("CCOCCOCCO [3,6-dioxa-1-octanol]")
949
>>> quantitative_result("COCCOCCOC [2,5,8-trioxanonane]")
899.9
>>> quantitative_result("CCOCCOCCOCC [diethylene glycol diethyl ether]")
865.9
>>> quantitative_result("COCCOCCO [2-(2-methoxyethoxy)ethanol]")
981
>>> quantitative_result("COCCOCCOCCOCCOC [2,5,8,11,14-pentaoxapentadecane]")
971
>>> quantitative_result("COCCOCCOCCOC [2,5,8,11-tetraoxadodecane]")
943.3
>>> quantitative_result("CCOCCO [2-ethoxyethan-1-ol]")
890.4

* * *

Details: 363.15 K; 101.33 kPa; Liquid; Concentric cylinders viscometry
Measured viscosity accompanies every entry in the list below.
READOUT LABEL: viscosity (mPa·s)

>>> quantitative_result("COCCOCCOCCOC [2,5,8,11-tetraoxadodecane]")
0.756
>>> quantitative_result("OCCO [1,2-ethanediol]")
2.552
>>> quantitative_result("COCCOCCOCCOCCOC [2,5,8,11,14-pentaoxapentadecane]")
1.115
>>> quantitative_result("CCOCCOCCOCC [diethylene glycol diethyl ether]")
0.526
>>> quantitative_result("CCOCCOCCO [3,6-dioxa-1-octanol]")
1.072
>>> quantitative_result("OCCOCCOCCO [triethylene glycol]")
4.346
>>> quantitative_result("COCCOCCO [2-(2-methoxyethoxy)ethanol]")
1.019
>>> quantitative_result("COCCOCCOC [2,5,8-trioxanonane]")
0.464
>>> quantitative_result("CCOCCO [2-ethoxyethan-1-ol]")
0.623
>>> quantitative_result("OCCOCCO [diethylene glycol]")
3.527

* * *

Conditions: 373.15 K; 101.33 kPa; Liquid; Vibrating tube method
Each entry gets NO if its mass density stays under 900 kg/m3, and YES if its mass density is 900 kg/m3 or above.

>>> discrete_label("CCOCCO")
"NO"
>>> discrete_label("COCCOCCOCCOCCOC")
"YES"
>>> discrete_label("OCCOCCOCCO")
"YES"
>>> discrete_label("COCCOCCOC")
"NO"
>>> discrete_label("OCCOCCO")
"YES"
>>> discrete_label("OCCO")
"YES"
>>> discrete_label("CCOCCOCCOCC")
"NO"
>>> discrete_label("COCCOCCO")
"YES"

* * *

Conditions: 318.15 K; 101.33 kPa; Liquid; Vibrating tube method
READOUT LABEL: mass density (kg/m3)

>>> quantitative_result("CCOCCOCCO")
967
>>> quantitative_result("CCOCCOCCOCC")
885.3
>>> quantitative_result("OCCOCCO")
1099.7
>>> quantitative_result("COCCOCCO")
998.8
>>> quantitative_result("COCCOCCOC")
920.2
>>> quantitative_result("OCCOCCOCCO")
1105.1
>>> quantitative_result("CCOCCO")
909.3
>>> quantitative_result("OCCO")
1097
>>> quantitative_result("COCCOCCOCCOCCOC")
989.5
>>> quantitative_result("COCCOCCOCCOC")
962.4

The origin of these recorded values is the NIST ThermoML archive (doi:10.1021/acs.jced.5b00662).
